molecules and their reported combination Emax
System: BICR22 (Oral Cavity Carcinoma)
Assay: combination Emax (second highest fraction inhibited in the dose matrix, 72 h); higher = more inhibition; extreme values may be limits of the assay
Write the value as a bare number.

Examples with answers:
Can you share its combination Emax? I mean this molecule: CCc1c2c(nc3ccc(O)cc13)-c1cc3c(c(=O)n1C2)COC(=O)[C@]3(O)CC [SN-38] + O=C(c1cc(Cc2n[nH]c(=O)c3ccccc23)ccc1F)N1CCN(C(=O)C2CC2)CC1 [Olaparib] (first compound max 0.3 µM, 7x7, partner max 10 µM) 0.95

Can you share its combination Emax? I mean this molecule: CC1(C)CCC(CN2CCN(c3ccc(C(=O)NS(=O)(=O)c4ccc(NCC5CCOCC5)c([N+](=O)[O-])c4)c(Oc4cnc5[nH]ccc5c4)c3)CC2)=C(c2ccc(Cl)cc2)C1 [Venetoclax] + CS(=O)(=O)CCNCc1ccc(-c2ccc3ncnc(Nc4ccc(OCc5cccc(F)c5)c(Cl)c4)c3c2)o1 [Lapatinib] (first compound max 1 µM, 7x7, partner max 10 µM) 0.21

Can you share its combination Emax? I mean this molecule: Cc1c2c(nn1C)CSCc1cc(n(C)n1)CSc1cc(c3ccccc3c1)OCCCc1c(C(=O)O)n(C)c3c-2c(Cl)ccc13 [AZD5991] + Nc1ccn([C@@H]2O[C@H](CO)[C@@H](O)C2(F)F)c(=O)n1 [Gemcitabine] (first compound max 1 µM, 7x7, partner max 0.3 µM) 0.957

Can you share its combination Emax? I mean this molecule: Cc1c2c(nn1C)CSCc1cc(n(C)n1)CSc1cc(c3ccccc3c1)OCCCc1c(C(=O)O)n(C)c3c-2c(Cl)ccc13 [AZD5991] + C1CN(CCC1(C(=O)N[C@@H](CCO)C2=CC=C(C=C2)Cl)N)C3=NC=NC4=C3C=CN4 [Capivasertib] (first compound max 1 µM, 7x7, partner max 3 µM) 0.689

Further cases:
Can you share its combination Emax? I mean this molecule: CN(CCO)CC[C@H](CSc1ccccc1)Nc1ccc(S(=O)(=O)NC(=O)c2ccc(N3CCC([C@@H](O)c4ccccc4-c4ccc(Cl)cc4)CC3)cc2)cc1S(=O)(=O)C(F)(F)F [AZD4320] + Nc1ccn([C@@H]2O[C@H](CO)[C@@H](O)C2(F)F)c(=O)n1 [Gemcitabine] (first compound max 1 µM, 7x7, partner max 0.3 µM) 0.95

Can you share its combination Emax? I mean this molecule: Cc1cc2ncnn2cc1Nc1ncc2c(n1)n(C1CCOCC1)c(=O)n2C [AZD7648] + C=CCn1c(=O)c2cnc(Nc3ccc(N4CCN(C)CC4)cc3)nc2n1-c1cccc(C(C)(C)O)n1 [AZD1775] (first compound max 10 µM, partner max 1 µM) 0.643

Can you share its combination Emax? I mean this molecule: CC1(C)CCC(CN2CCN(c3ccc(C(=O)NS(=O)(=O)c4ccc(NCC5CCOCC5)c([N+](=O)[O-])c4)c(Oc4cnc5[nH]ccc5c4)c3)CC2)=C(c2ccc(Cl)cc2)C1 [Venetoclax] + C[C@@H](Nc1cc(F)cc(F)c1)c1cc(C(=O)N(C)C)cc2c(=O)cc(N3CCOCC3)oc12 [AZD8186] (first compound max 1 µM, 7x7, partner max 3 µM) 0.15

---

System: NCI-H2591 (Mesothelioma)
Experiment: combination Emax (second highest fraction inhibited in the dose matrix, 72 h); higher = more inhibition; extreme values may be limits of the assay
property: combination Emax
Write the value as a bare number.

Examples with answers:
Can you share its combination Emax? I mean this compound: C[C@@H](c1ccc2nccn2c1)n1nnc2ncc(-c3cnn(C)c3)nc21 [Savolitinib] + CN(CC[C@H](CSC1=CC=CC=C1)NC2=C(C=C(C=C2)S(=O)(=O)NC(=O)C3=CC=C(C=C3)N4CCC(CC4)[C@H](C5=CC=CC=C5C6=CC=C(C=C6)Cl)O)S(=O)(=O)C(F)(F)F)CCO [AZD4320] (first compound max 1 µM, 7x7, partner max 1 µM) 0.15

Can you share its combination Emax? I mean this compound: Cn1cnc2c(F)c(Nc3ccc(Br)cc3Cl)c(C(=O)NOCCO)cc21 [Selumetinib] + C=CCn1c(=O)c2cnc(Nc3ccc(N4CCN(C)CC4)cc3)nc2n1-c1cccc(C(C)(C)O)n1 [AZD1775] (first compound max 10 µM, partner max 1 µM) 0.309

Can you share its combination Emax? I mean this compound: Cc1cc2ncnn2cc1Nc1ncc2c(n1)n(C1CCOCC1)c(=O)n2C [AZD7648] + CCN(CCO)CCCOc1ccc2c(Nc3cc(CC(=O)Nc4cccc(F)c4)[nH]n3)ncnc2c1 [AZD2811] (first compound max 10 µM, 7x7, partner max 1 µM) 0.37

Can you share its combination Emax? I mean this compound: NC1(C(=O)N[C@@H](CCO)c2ccc(Cl)cc2)CCN(c2ncnc3[nH]ccc23)CC1 [Capivasertib] + C[C@@H]1COCCN1C2=NC(=NC(=C2)C3(CC3)[S@](=N)(=O)C)C4=C5C=CNC5=NC=C4 [AZD6738] (first compound max 10 µM, 7x7, partner max 10 µM) 0.482

Further cases:
Can you share its combination Emax? I mean this compound: CCN(CCO)CCCOc1ccc2c(Nc3cc(CC(=O)Nc4cccc(F)c4)[nH]n3)ncnc2c1 [AZD2811] + C=CCn1c(=O)c2cnc(Nc3ccc(N4CCN(C)CC4)cc3)nc2n1-c1cccc(C(C)(C)O)n1 [AZD1775] (first compound max 1 µM, partner max 1 µM) 0.194

Can you share its combination Emax? I mean this compound: COc1cccc(OCCCN)c1-c1cc(Nc2cnc(C#N)cn2)n[nH]1 [Prexasertib] + Cc1cc2ncnn2cc1Nc1ncc2c(n1)n(C1CCOCC1)c(=O)n2C [AZD7648] (first compound max 1 µM, 7x7, partner max 10 µM) 0.415

Can you share its combination Emax? I mean this compound: Cc1cc2ncnn2cc1Nc1ncc2c(n1)n(C1CCOCC1)c(=O)n2C [AZD7648] + CN(C)CCCOc1ccc(-c2ccc3ncc4c(c3c2)n(C2CCOCC2)c(=O)n4C)cn1 [AZD0156] (first compound max 10 µM, 7x7, partner max 1 µM) 0.334
